Origin of the recorded values: the supplement of paper PMC10065799

Biological target: Fes (UniProt P07332)
Sequence (P07332 whole entry, looked up): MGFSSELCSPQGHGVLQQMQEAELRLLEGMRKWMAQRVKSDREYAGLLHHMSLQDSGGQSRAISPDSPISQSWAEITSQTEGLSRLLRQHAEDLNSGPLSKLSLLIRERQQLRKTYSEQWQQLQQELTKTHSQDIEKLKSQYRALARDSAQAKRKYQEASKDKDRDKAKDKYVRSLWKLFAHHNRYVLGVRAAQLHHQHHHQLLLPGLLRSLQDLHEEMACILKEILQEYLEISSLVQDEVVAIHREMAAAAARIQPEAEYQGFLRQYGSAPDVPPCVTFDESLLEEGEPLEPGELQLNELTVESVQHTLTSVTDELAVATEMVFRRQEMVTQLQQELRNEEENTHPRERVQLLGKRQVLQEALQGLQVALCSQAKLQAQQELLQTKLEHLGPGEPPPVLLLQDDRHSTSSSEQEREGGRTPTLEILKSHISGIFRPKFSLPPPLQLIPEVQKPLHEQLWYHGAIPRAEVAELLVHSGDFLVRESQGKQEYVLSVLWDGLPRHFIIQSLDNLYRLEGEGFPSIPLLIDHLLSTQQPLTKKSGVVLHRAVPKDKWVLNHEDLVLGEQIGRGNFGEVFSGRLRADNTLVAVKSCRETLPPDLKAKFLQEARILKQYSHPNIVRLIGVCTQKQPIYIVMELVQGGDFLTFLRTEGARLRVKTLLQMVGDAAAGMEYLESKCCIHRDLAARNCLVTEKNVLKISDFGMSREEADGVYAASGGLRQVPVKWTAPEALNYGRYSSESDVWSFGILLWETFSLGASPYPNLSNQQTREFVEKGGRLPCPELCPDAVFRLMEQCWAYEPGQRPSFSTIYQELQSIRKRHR
Experiment: phosphorylation enrichment, bacterial display (enrichment ratio); higher = better substrate or ligand; peptides without Tyr show the background;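 also: 11-residue human phosphosite peptides and single-mutation variants displayed on the E. coli surface, counted by deep sequencing, each peptide's frequency after selection divided by its frequency in the unselected input library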;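 also: frequency after pTyr selection over input frequency; kinase dosed for 20-30% of maximal phosphorylation in three min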

{"entry_sequence": "LEDDMYRKTCT [XPA_Y257]", "phosphorylation enrichment": 2.56}
{"entry_sequence": "LVQAEYWHDRI [PPT1_Y185_P189R]", "phosphorylation enrichment": 1}
{"entry_sequence": "ANVIRYFPTQA [SLC25A4_Y81]", "phosphorylation enrichment": 0.648}
{"entry_sequence": "KTTGGYAGGLS [KRT8_Y419_S417G]", "phosphorylation enrichment": 0.592}
{"entry_sequence": "LYSNAYLNDLA [ALDH1A1_Y119]", "phosphorylation enrichment": 0.914}
{"entry_sequence": "AKGMKYLASKK [MET_Y1194]", "phosphorylation enrichment": 0.536}
{"entry_sequence": "RDSQLYAVDFE [MRPS34_Y34_YF]", "phosphorylation enrichment": 1.58}
{"entry_sequence": "QEGPEYWDQNT [HLA-A_Y83_E87N]", "phosphorylation enrichment": 1.42}
{"entry_sequence": "SILAVYSKDNY [PANK2_Y400]", "phosphorylation enrichment": 0.664}
{"entry_sequence": "LWPIWYRCHRP [MRGPRX1_Y130]", "phosphorylation enrichment": 1.63}
{"entry_sequence": "SRLSAYPALEG [CD5_Y465_H461R]", "phosphorylation enrichment": 0.803}
{"entry_sequence": "VQEDIYDEFVE [ALDH2_Y332]", "phosphorylation enrichment": 1.3}
{"entry_sequence": "VTSLKYSTPPY [BRIP1_Y916_S919P]", "phosphorylation enrichment": 0.681}
{"entry_sequence": "ESMNIYLQTSP [NAT1_Y208_T207I]", "phosphorylation enrichment": 1.05}
{"entry_sequence": "IVAEYYDNLPH [DEGS1_Y284_A280V]", "phosphorylation enrichment": 1.38}
{"entry_sequence": "GISDEYHVIRH [GCDH_Y398]", "phosphorylation enrichment": 0.69}
{"entry_sequence": "NHYKIYNLYAE [PTEN_Y68_C71Y]", "phosphorylation enrichment": 0.723}
{"entry_sequence": "LIGRRYDDPEV [HSPA9_Y128]", "phosphorylation enrichment": 2.17}
{"entry_sequence": "PRRRFYVVACD [RNASE3_Y134_G130R]", "phosphorylation enrichment": 0.667}
{"entry_sequence": "FLAVEYHKPHI [IDS_Y225_G224E]", "phosphorylation enrichment": 0.814}
{"entry_sequence": "DRLAVYIDRVS [LMNA_Y45_R50S]", "phosphorylation enrichment": 0.953}
{"entry_sequence": "YKPGFYNLKEK [LAMA1_Y490_C485Y]", "phosphorylation enrichment": 0.628}
{"entry_sequence": "SYMVRYNQPRV [GRIN2D_Y736]", "phosphorylation enrichment": 0.734}
{"entry_sequence": "RNDLDYMDSRR [GAA_Y407_W402R]", "phosphorylation enrichment": 0.81}
{"entry_sequence": "KNNSIYVLANI [VNN1_Y134_V136L]", "phosphorylation enrichment": 1.24}
{"entry_sequence": "INPIIYAFVVE [CCR5_Y297_G301V]", "phosphorylation enrichment": 1.5}
{"entry_sequence": "LREKVYASLEA [RXRA_Y397]", "phosphorylation enrichment": 1.9}
{"entry_sequence": "EKKQTYGSCRK [LACTB_Y473_R469K]", "phosphorylation enrichment": 0.685}
{"entry_sequence": "SRASFYRKGGC [ALK_Y1283_Y1278S_YF]", "phosphorylation enrichment": 0.627}
